Biological target: Piezo-type mechanosensitive ion channel component 1 (Mus musculus)
Assay: Agonist activity at mouse Piezo1 transfected in HEK293T cells expressing PZ1 mutant by fluorescence based assay
Assay type: cell-based
Value type: pEC50
// pEC50 here means minus log10 of the molar concentration (mol/L)

Give Piezo-type mechanosensitive ion channel component 1 (Mus musculus) pEC50 for `NC1=NC(=O)[C@H](CC(=O)Nc2ccc(SC(F)F)cc2)S1`
4.89

====

Test: Metabolic stability in dog liver microsomes assessed as intrinsic clearance at 10 uM measured for 60 mins by LC-MS/MS analysis
Assay type: ADME, Canis lupus familiaris, Microsome
Settings: read-out: CLH
Value type: microsomal CLint at 10 µM (µL/min/mg)

I. Clc1cccc(Cl)c1CSc1nnc(-c2cnccn2)s1
II. [2H]C([2H])(Sc1nnc(-c2cnc(NC[C@@H](C)O)cn2)s1)c1c(Cl)cccc1Cl
I'm curious whether I or II has the smaller microsomal CLint at 10 µM number. Which is it? State the label of the item chosen.
II

====

Molecular target: Piezo-type mechanosensitive ion channel component 1 (Homo sapiens)
Sequence (Q92508 whole entry): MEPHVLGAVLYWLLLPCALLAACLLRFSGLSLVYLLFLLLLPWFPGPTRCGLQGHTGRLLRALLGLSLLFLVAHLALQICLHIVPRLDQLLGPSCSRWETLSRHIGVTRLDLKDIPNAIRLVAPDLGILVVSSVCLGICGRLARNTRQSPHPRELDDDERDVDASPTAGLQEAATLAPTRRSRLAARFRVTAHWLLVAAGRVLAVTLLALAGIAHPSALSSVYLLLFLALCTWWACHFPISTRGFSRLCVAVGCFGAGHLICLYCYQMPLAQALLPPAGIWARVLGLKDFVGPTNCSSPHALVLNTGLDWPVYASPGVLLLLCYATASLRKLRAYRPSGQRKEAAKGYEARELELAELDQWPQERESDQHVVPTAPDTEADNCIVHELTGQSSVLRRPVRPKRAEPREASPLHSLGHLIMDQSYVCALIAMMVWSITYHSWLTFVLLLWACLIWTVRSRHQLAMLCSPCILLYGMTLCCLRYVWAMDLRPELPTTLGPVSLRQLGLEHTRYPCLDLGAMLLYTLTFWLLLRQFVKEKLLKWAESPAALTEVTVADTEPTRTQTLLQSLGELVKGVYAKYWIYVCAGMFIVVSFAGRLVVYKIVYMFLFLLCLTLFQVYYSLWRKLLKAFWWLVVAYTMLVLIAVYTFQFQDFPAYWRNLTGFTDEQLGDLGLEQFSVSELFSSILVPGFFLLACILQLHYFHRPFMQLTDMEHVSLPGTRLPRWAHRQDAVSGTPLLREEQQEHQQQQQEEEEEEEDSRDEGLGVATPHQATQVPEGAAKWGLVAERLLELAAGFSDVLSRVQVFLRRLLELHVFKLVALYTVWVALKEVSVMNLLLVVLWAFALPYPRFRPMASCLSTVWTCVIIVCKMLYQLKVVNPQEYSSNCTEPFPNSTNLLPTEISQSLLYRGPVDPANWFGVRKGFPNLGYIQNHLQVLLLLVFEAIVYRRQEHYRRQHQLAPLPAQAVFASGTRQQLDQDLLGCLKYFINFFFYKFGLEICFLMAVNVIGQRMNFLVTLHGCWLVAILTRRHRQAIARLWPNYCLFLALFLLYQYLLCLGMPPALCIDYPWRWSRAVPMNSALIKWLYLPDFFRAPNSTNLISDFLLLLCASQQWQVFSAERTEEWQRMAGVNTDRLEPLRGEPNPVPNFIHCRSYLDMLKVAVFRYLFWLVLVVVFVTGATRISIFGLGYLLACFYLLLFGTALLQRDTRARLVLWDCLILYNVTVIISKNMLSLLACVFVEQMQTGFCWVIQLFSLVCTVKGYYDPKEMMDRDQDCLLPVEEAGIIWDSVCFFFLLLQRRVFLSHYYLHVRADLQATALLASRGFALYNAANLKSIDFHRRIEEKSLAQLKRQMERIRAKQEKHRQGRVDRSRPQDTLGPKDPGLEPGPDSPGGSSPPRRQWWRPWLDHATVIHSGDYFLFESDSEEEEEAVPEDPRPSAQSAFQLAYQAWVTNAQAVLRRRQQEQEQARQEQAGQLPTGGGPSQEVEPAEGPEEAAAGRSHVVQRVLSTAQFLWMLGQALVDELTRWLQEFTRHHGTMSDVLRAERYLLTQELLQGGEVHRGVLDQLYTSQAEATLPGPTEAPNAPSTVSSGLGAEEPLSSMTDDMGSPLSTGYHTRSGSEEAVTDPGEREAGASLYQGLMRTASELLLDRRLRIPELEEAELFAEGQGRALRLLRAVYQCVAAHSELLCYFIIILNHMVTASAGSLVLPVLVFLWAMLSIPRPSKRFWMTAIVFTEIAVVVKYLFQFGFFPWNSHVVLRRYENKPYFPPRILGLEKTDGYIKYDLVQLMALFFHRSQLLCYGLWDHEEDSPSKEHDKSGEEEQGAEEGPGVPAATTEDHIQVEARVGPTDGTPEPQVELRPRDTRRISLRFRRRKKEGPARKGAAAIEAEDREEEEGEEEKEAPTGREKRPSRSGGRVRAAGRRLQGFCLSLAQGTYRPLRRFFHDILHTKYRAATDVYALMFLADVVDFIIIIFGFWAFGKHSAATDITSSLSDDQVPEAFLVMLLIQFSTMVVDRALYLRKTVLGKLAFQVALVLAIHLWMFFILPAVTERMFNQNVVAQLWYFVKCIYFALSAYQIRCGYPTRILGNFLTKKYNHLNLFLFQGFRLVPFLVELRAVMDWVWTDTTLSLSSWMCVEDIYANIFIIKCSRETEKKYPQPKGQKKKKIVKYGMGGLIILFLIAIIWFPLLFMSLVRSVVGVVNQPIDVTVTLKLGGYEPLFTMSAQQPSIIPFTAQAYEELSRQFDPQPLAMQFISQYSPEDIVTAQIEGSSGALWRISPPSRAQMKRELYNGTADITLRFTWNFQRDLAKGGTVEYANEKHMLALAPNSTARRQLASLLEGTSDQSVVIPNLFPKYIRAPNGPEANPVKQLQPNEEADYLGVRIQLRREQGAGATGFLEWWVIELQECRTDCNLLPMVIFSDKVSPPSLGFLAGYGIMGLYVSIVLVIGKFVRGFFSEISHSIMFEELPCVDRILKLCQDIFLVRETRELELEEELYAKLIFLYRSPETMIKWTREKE
Assay: Agonist activity at human Piezo1 transfected in HEK293T cells by FLIPR assay
Value type: EC50 (µM)
I only need the number, in µM, no unit after it.

I am curious: what EC50 value has been reported for `Clc1cccc(Cl)c1CSc1nnc(-c2cnccn2)s1` ?
17.1

====

Assay: Metabolic stability in mouse liver microsomes assessed as intrinsic clearance at 10 uM measured for 60 mins by LC-MS/MS analysis
Format: ADME, Microsome
Settings: read-out: CLH
Value type: microsomal CLint at 10 µM (µL/min/mg)
Field: numeric (µL/min/mg). Do not append units.

What does the record list as microsomal CLint at 10 µM for `[2H]C([2H])(Sc1nnc(-c2cnc(NC[C@@H](C)O)cn2)s1)c1c(Cl)cccc1Cl` ?
88.4

====

Assay: Metabolic stability in human liver microsomes assessed as intrinsic clearance at 10 uM measured for 60 mins by LC-MS/MS analysis
Format: ADME, Microsome
Details: read-out: CLH
Value type: microsomal CLint at 10 µM (µL/min/mg)

P. Clc1cccc(Cl)c1CSc1nnc(-c2cnccn2)s1
Q. [2H]C([2H])(Sc1nnc(-c2cnc(NC[C@@H](C)O)cn2)s1)c1c(Cl)cccc1Cl
microsomal CLint at 10 µM comparison. Which is larger, P or Q ? Refer to your chosen entry by its label in the reply.
P
(P: 250 µL/min/mg, Q: 83.2 µL/min/mg)

====

Biological target: Piezo-type mechanosensitive ion channel component 1 (Mus musculus)
Assay: Agonist activity at Piezo1 in mouse C3H 10T1/2 cells assessed as influx of calcium ions by measuring change in ratio of calcium fluorescence at 20 uM incubated for 2 hrs by Cal-bryte 520 AM dye based analysis relative to control
Type: cell-based
Value type: Percent change in calcium fluorescence ratio relative to control (%)

Quick one: Percent change in calcium fluorescence ratio relative to control for `C[C@@H](O)CNc1cnc(-c2nnc(SCc3c(F)cccc3F)s2)cn1` ?
21

A. Cn1nnc2ccc(CSc3nnc(-c4cnc(N5CCC6(CC5)CNC(=O)C6)cn4)s3)cc21
B. OCC1CN(c2cnc(-c3nnc(SCc4c(Cl)cccc4Cl)s3)cn2)C1
C. FC1(F)CN(c2cnc(-c3nnc(SCc4c(Cl)cccc4Cl)s3)cn2)C1
List by increasing Percent change in calcium fluorescence ratio relative to control. Give the labels in the order requested.
C, B, A

A. OC1CN(c2cnc(-c3nnc(SCc4c(Cl)cccc4Cl)s3)cn2)C1
B. C[C@@H](O)CNc1cnc(-c2nnc(SCc3ccc4scnc4c3)s2)cn1
Select the item whose Percent change in calcium fluorescence ratio relative to control value is smaller, choosing between A and B . Returns: label corresponding to the selected item.
B
(B: 15.4%, A: 36%)

I. O[C@H]1CCN(c2cnc(-c3nnc(SCc4c(Cl)cccc4Cl)s3)cn2)C1
II. Clc1cccc(Cl)c1CSc1nnc(-c2cnc(N3CC4(COC4)C3)cn2)s1
Compare I and II by numeric Percent change in calcium fluorescence ratio relative to control and name the larger one. // output: label of the selected item
I

1. C[C@@H](O)CNc1cnc(-c2nnc(SCc3ccc4nnn(C)c4c3)s2)cn1
2. Clc1cccc(Cl)c1CSc1nnc(-c2cnc(Br)cn2)s1
Hey, between 1 and 2 which has a smaller measured Percent change in calcium fluorescence ratio relative to control? Respond with the label that goes with your answer.
2

====

Target: Piezo-type mechanosensitive ion channel component 1 (Mus musculus, UniProt E2JF22)
Experiment: Agonist activity at Piezo1 in mouse C3H 10T1/2 cells assessed as influx of calcium ions incubated for 2 hrs by Cal-bryte 520 AM dye based analysis
Format: cell-based
Value type: EC50 (µM)

1. Clc1cccc(Cl)c1CSc1nnc(-c2cnccn2)s1
2. [2H]C([2H])(Sc1nnc(-c2cnc(NC[C@@H](C)O)cn2)s1)c1c(Cl)cccc1Cl
Lab notebook, comparison: 1 versus 2 , higher EC50 goes to which? When you have decided, please share the label of that item.
2

====

Assay: Apparent permeability in MDCK cells
Format: ADME, cell-based, Canis lupus familiaris
Settings: dog
Value type: Papp (×10⁻⁶ cm/s)

P. [2H]C([2H])(Sc1nnc(-c2cnc(NC[C@@H](C)O)cn2)s1)c1c(Cl)cccc1Cl
Q. Clc1cccc(Cl)c1CSc1nnc(-c2cnccn2)s1
Of P and Q , whose reported Papp is the larger number? Respond with the label that goes with your answer.
Q
(Q: 38 ×10⁻⁶ cm/s, P: 21 ×10⁻⁶ cm/s)

====

Experiment: Metabolic stability in human liver microsomes assessed as half life at 10 uM measured for 60 mins by LC-MS/MS analysis
Assay type: ADME, Microsome
Value type: half-life at 10 µM (min)

I. Clc1cccc(Cl)c1CSc1nnc(-c2cnccn2)s1
II. [2H]C([2H])(Sc1nnc(-c2cnc(NC[C@@H](C)O)cn2)s1)c1c(Cl)cccc1Cl
Choose between I and II : whose measured half-life at 10 µM value is numerically larger? Field: selected label. Fill in the label of the entry you choose.
II
(II: 16.7 min, I: 5.55 min)

====

Test: Metabolic stability in dog liver microsomes assessed as half life at 10 uM measured for 60 mins by LC-MS/MS analysis
Assay type: ADME, Canis lupus familiaris, Microsome
Value type: half-life at 10 µM (min)

a. Clc1cccc(Cl)c1CSc1nnc(-c2cnccn2)s1
b. [2H]C([2H])(Sc1nnc(-c2cnc(NC[C@@H](C)O)cn2)s1)c1c(Cl)cccc1Cl
Determine, for a and b , which has the greater value of half-life at 10 µM. Bench note: the answer is the label of the chosen record.
b

====

Biological target: Piezo-type mechanosensitive ion channel component 1 (Mus musculus) (UniProt E2JF22)
Sequence (E2JF22 whole entry): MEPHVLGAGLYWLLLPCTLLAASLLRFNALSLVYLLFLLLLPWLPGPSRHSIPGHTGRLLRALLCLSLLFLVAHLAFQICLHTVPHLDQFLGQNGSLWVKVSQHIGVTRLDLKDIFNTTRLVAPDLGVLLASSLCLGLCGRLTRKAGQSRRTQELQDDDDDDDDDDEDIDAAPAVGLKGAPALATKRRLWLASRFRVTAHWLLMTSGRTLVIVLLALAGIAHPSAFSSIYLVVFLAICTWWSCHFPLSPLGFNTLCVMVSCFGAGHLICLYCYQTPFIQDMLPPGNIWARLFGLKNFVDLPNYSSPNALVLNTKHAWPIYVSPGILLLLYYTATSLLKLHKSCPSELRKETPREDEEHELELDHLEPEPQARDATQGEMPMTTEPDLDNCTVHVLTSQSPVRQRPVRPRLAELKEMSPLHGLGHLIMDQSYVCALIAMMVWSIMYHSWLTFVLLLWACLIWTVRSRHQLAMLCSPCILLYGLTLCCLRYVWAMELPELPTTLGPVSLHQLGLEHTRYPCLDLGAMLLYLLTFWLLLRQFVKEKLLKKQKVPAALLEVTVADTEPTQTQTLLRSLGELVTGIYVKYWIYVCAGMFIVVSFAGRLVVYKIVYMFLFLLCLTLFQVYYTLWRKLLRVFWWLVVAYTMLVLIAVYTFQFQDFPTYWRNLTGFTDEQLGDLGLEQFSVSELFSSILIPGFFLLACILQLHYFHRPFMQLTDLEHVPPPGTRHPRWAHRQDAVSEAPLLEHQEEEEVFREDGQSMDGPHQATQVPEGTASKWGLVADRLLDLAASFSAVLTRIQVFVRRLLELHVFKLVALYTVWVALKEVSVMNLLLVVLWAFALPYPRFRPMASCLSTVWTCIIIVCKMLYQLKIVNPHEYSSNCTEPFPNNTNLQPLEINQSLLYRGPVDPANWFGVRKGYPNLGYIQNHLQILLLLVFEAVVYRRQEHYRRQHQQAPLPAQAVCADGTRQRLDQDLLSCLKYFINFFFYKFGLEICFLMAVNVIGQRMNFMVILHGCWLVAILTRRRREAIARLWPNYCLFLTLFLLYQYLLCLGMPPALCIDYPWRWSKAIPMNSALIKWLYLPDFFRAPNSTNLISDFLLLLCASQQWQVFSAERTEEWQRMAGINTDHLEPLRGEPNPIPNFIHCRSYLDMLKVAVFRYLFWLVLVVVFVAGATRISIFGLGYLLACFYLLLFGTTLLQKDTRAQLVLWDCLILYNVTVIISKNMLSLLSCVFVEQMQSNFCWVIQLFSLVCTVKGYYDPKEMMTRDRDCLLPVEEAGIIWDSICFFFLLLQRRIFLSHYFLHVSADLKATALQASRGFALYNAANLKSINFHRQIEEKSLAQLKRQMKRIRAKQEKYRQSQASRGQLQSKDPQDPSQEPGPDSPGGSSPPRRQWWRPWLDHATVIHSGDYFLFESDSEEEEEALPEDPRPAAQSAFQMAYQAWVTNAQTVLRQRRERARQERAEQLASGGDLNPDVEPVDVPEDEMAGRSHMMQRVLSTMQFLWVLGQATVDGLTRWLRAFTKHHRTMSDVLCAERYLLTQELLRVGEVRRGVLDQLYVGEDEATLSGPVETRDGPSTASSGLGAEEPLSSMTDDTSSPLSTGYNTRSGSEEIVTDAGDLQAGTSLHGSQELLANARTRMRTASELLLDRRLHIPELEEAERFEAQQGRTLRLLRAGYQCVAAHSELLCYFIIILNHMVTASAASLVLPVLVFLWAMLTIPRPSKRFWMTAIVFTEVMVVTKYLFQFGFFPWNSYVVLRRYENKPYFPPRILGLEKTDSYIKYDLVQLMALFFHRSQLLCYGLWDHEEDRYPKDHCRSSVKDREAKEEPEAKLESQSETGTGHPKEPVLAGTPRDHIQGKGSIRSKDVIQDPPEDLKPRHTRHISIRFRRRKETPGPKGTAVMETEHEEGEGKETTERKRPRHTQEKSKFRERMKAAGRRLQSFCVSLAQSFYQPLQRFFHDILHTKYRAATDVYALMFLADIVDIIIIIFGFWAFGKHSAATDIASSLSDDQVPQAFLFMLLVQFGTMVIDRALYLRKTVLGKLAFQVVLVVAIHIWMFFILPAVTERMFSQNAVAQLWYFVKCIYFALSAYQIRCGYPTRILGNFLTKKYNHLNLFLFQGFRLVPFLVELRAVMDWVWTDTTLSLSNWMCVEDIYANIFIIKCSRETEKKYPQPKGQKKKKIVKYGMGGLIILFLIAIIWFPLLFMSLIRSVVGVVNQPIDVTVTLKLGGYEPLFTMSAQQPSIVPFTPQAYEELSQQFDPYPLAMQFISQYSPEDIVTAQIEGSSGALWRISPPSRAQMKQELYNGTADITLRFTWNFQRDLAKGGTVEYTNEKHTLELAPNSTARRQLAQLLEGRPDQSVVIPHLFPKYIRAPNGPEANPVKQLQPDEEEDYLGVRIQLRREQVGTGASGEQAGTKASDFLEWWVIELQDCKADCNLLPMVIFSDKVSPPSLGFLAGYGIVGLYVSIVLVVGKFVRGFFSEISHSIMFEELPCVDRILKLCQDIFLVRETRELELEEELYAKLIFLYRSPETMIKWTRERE
Assay: Agonist activity at Piezo1 in mouse C3H 10T1/2 cells assessed as influx of calcium ions by measuring change in ratio of calcium fluorescence at 20 uM incubated for 2 hrs by Cal-bryte 520 AM dye based analysis relative to control
Type: cell-based
Value type: Percent change in calcium fluorescence ratio relative to control (%)

Observe how each entry below is paired with its result.
Enter reported Percent change in calcium fluorescence ratio relative to control observed with Piezo-type mechanosensitive ion channel component 1 (Mus musculus) (UniProt E2JF22) for `OC1CCN(c2cnc(-c3nnc(SCc4c(Cl)cccc4Cl)s3)cn2)CC1`
2

Fill in the recorded Percent change in calcium fluorescence ratio relative to control for this compound, with Piezo-type mechanosensitive ion channel component 1 (Mus musculus) (UniProt E2JF22) as test system: `O=C1CC2(CCN(c3cnc(-c4nnc(SCc5ccc6ncoc6c5)s4)cn3)CC2)CN1`
31.2

Param readout = Percent change in calcium fluorescence ratio relative to control; param system = Piezo-type mechanosensitive ion channel component 1 (Mus musculus) (UniProt E2JF22); param query = `CC1(O)CN(c2cnc(-c3nnc(SCc4c(Cl)cccc4Cl)s3)cn2)C1` ; response: value
16.1

a. Clc1cccc(Cl)c1CSc1nnc(-c2cnccn2)s1
b. O=C1CC2(CCN(c3cnc(-c4nnc(SCc5ccc6scnc6c5)s4)cn3)CC2)CN1
Given a and b , report the one with the higher recorded Percent change in calcium fluorescence ratio relative to control. Reply briefly: the label of your chosen item.
a
